- TARGET_OF_ASSAY: c-KIT V654A kinase (Seq ID no. 2) (Homo sapiens, UniProt P10721, V654A)
- Construct: V654A c-Kit (residues T544-V976 with N-terminal GST fusion, 47 nM)
- Sequence (P10721 544-976 V654A): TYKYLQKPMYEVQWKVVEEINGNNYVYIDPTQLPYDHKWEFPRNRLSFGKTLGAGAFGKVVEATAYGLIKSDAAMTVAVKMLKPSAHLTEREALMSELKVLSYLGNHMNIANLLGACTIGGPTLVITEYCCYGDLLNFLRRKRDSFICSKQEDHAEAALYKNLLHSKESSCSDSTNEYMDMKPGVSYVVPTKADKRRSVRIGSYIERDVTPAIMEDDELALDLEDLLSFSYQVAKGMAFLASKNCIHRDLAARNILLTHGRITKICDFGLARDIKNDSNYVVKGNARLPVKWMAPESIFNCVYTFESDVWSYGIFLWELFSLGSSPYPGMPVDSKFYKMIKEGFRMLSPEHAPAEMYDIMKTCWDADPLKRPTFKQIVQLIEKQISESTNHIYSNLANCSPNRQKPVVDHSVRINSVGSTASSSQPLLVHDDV
- EXPERIMENTAL_PROTOCOL: c-KIT V654A Kinase Assay
- EXPERIMENTAL_CONDITIONS: enzymatic assay, ATP 200 μM
METRIC: IC50

>>> assay_value("CCn1c(=O)c(-c2cc(NC(=O)Nc3cc(F)cc(CN4CCN(C)CC4)c3)c(F)cc2Cl)cc2cnc(NC)cc21")
"10 to 100 nM"
>>> assay_value("Cc1cc(F)c(NC(=O)Nc2ccccc2)cc1-c1cc2cnc(NC(=O)N3CCC3)cc2n(C(C)C)c1=O")
"10 to 100 nM"
>>> assay_value("CCn1c(=O)c(-c2cc(NC(=O)Nc3ccccc3)c(F)cc2Cl)cc2cnc(NCCCN3CCOCC3)cc21")
"< 10 nM"
>>> assay_value("CCn1c(=O)c(-c2cc(NC(=O)Nc3ccccc3)c(F)cc2Br)cc2cnc(NC(C)=O)cc21")
"10 to 100 nM"
>>> assay_value("CCn1c(=O)c(-c2cc(NC(=O)Nc3cccc(CN4CCN(C)CC4)c3)c(F)cc2Cl)cc2cnc(NC)cc21")
"100 to 1000 nM"
>>> assay_value("CCn1c(=O)c(-c2cc(NC(=O)Nc3ccccc3)c(F)cc2C)cc2cnc(Nc3cnn(C)c3)cc21")
"10 to 100 nM"
>>> assay_value("CC(=O)Nc1cc2c(cn1)cc(-c1cc(NC(=O)Nc3cccc(F)c3)c(F)cc1Cl)c(=O)n2C(C)C")
"10 to 100 nM"
>>> assay_value("CCn1c(=O)c(-c2cc(NC(=O)Nc3ccccc3)c(F)cc2Cl)cc2cnc(N)cc21")
"< 10 nM"

The measured values listed here are drawn from patent US8940756B2.
